Experiment: Plasma pharmacokinetics of Compound 2 in PD participants (LC-MS/MS)
Type: in vivo, human
Details: human, plasma, po, 4 mg, plasma, Day 1; ROW, Low 4 mg oral, n = 4; read-out: Cmax, mean
measured.endpoint: Cmax (ng/mL)
Report the value in ng/mL with no unit label.

Using the record for CC(C)(NC(=O)O[C@@H]1CN2CCC1CC2)c1csc(-c2ccc(F)cc2)n1 [Compound 2] , state its measured Cmax.
13.8

====

Test: Plasma pharmacokinetics of Compound 2 in PD participants (LC-MS/MS)
Assay type: in vivo, human
Details: human, plasma, po, 15 mg, plasma, Day 1; ROW, High 15 mg oral, n = 4; read-out: tmax, median
measured.endpoint: Tmax (h)
Report the value in h with no unit label.

Using the record for `CC(C)(NC(=O)O[C@@H]1CN2CCC1CC2)c1csc(-c2ccc(F)cc2)n1` , state its measured Tmax.
3.94
